B1: library; a variant is named by its letters at N, in order (parent)
chain: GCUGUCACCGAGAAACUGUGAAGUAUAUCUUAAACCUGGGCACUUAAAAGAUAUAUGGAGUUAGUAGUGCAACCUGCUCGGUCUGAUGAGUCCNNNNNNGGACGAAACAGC

Variants of: B1
test_method_notes: normalized RNA/DNA level with ligand (relative to sTRSVctl = 100) (log10 (% of sTRSVctl)); HEK293T; ligand: cyclic di-GMP (c-di-GMP-II aptamer); ligand concentration (+) RNA-Seq: 1 mM; higher = less ribozyme self-cleavage, higher mRNA level
condition_summary: reporter: mCherry (pCS4076), ligand present: yes
# normalized RNA/DNA level with ligand (log10) listing for each entry below
endpoint_name: normalized RNA/DNA level with ligand (log10)

# record_sequence, experimental_result
measured = [
    ("GCUGUCACCGAGAAACUGUGAAGUAUAUCUUAAACCUGGGCACUUAAAAGAUAUAUGGAGUUAGUAGUGCAACCUGCUCGGUCUGAUGAGUCCGUAGUUGGACGAAACAGC", 1.75),
    ("GCUGUCACCGAGAAACUGUGAAGUAUAUCUUAAACCUGGGCACUUAAAAGAUAUAUGGAGUUAGUAGUGCAACCUGCUCGGUCUGAUGAGUCCAGAGCGGGACGAAACAGC", 1.84),
    ("GCUGUCACCGAGAAACUGUGAAGUAUAUCUUAAACCUGGGCACUUAAAAGAUAUAUGGAGUUAGUAGUGCAACCUGCUCGGUCUGAUGAGUCCUUACUAGGACGAAACAGC", 1.77),
    ("GCUGUCACCGAGAAACUGUGAAGUAUAUCUUAAACCUGGGCACUUAAAAGAUAUAUGGAGUUAGUAGUGCAACCUGCUCGGUCUGAUGAGUCCAGACAAGGACGAAACAGC", 1.65),
    ("GCUGUCACCGAGAAACUGUGAAGUAUAUCUUAAACCUGGGCACUUAAAAGAUAUAUGGAGUUAGUAGUGCAACCUGCUCGGUCUGAUGAGUCCGCUUCGGGACGAAACAGC", 1.76),
    ("GCUGUCACCGAGAAACUGUGAAGUAUAUCUUAAACCUGGGCACUUAAAAGAUAUAUGGAGUUAGUAGUGCAACCUGCUCGGUCUGAUGAGUCCUCAUGCGGACGAAACAGC", 1.89),
    ("GCUGUCACCGAGAAACUGUGAAGUAUAUCUUAAACCUGGGCACUUAAAAGAUAUAUGGAGUUAGUAGUGCAACCUGCUCGGUCUGAUGAGUCCUAUGGUGGACGAAACAGC", 1.76),
    ("GCUGUCACCGAGAAACUGUGAAGUAUAUCUUAAACCUGGGCACUUAAAAGAUAUAUGGAGUUAGUAGUGCAACCUGCUCGGUCUGAUGAGUCCGCCGUGGGACGAAACAGC", 1.8),
    ("GCUGUCACCGAGAAACUGUGAAGUAUAUCUUAAACCUGGGCACUUAAAAGAUAUAUGGAGUUAGUAGUGCAACCUGCUCGGUCUGAUGAGUCCAGCUAAGGACGAAACAGC", 1.7),
    ("GCUGUCACCGAGAAACUGUGAAGUAUAUCUUAAACCUGGGCACUUAAAAGAUAUAUGGAGUUAGUAGUGCAACCUGCUCGGUCUGAUGAGUCCAACCAGGGACGAAACAGC", 1.73),
    ("GCUGUCACCGAGAAACUGUGAAGUAUAUCUUAAACCUGGGCACUUAAAAGAUAUAUGGAGUUAGUAGUGCAACCUGCUCGGUCUGAUGAGUCCGCGCACGGACGAAACAGC", 1.66),
    ("GCUGUCACCGAGAAACUGUGAAGUAUAUCUUAAACCUGGGCACUUAAAAGAUAUAUGGAGUUAGUAGUGCAACCUGCUCGGUCUGAUGAGUCCUGAUGGGGACGAAACAGC", 1.83),
    ("GCUGUCACCGAGAAACUGUGAAGUAUAUCUUAAACCUGGGCACUUAAAAGAUAUAUGGAGUUAGUAGUGCAACCUGCUCGGUCUGAUGAGUCCUAAGCAGGACGAAACAGC", 1.87),
    ("GCUGUCACCGAGAAACUGUGAAGUAUAUCUUAAACCUGGGCACUUAAAAGAUAUAUGGAGUUAGUAGUGCAACCUGCUCGGUCUGAUGAGUCCCGCUGUGGACGAAACAGC", 1.9),
    ("GCUGUCACCGAGAAACUGUGAAGUAUAUCUUAAACCUGGGCACUUAAAAGAUAUAUGGAGUUAGUAGUGCAACCUGCUCGGUCUGAUGAGUCCCCGAUGGGACGAAACAGC", 1.32),
    ("GCUGUCACCGAGAAACUGUGAAGUAUAUCUUAAACCUGGGCACUUAAAAGAUAUAUGGAGUUAGUAGUGCAACCUGCUCGGUCUGAUGAGUCCAGCGUGGGACGAAACAGC", 1.78),
    ("GCUGUCACCGAGAAACUGUGAAGUAUAUCUUAAACCUGGGCACUUAAAAGAUAUAUGGAGUUAGUAGUGCAACCUGCUCGGUCUGAUGAGUCCCACGCAGGACGAAACAGC", 1.79),
    ("GCUGUCACCGAGAAACUGUGAAGUAUAUCUUAAACCUGGGCACUUAAAAGAUAUAUGGAGUUAGUAGUGCAACCUGCUCGGUCUGAUGAGUCCUACCUCGGACGAAACAGC", 1.93),
    ("GCUGUCACCGAGAAACUGUGAAGUAUAUCUUAAACCUGGGCACUUAAAAGAUAUAUGGAGUUAGUAGUGCAACCUGCUCGGUCUGAUGAGUCCGUGAAGGGACGAAACAGC", 1.66),
    ("GCUGUCACCGAGAAACUGUGAAGUAUAUCUUAAACCUGGGCACUUAAAAGAUAUAUGGAGUUAGUAGUGCAACCUGCUCGGUCUGAUGAGUCCCGACCCGGACGAAACAGC", 1.88),
    ("GCUGUCACCGAGAAACUGUGAAGUAUAUCUUAAACCUGGGCACUUAAAAGAUAUAUGGAGUUAGUAGUGCAACCUGCUCGGUCUGAUGAGUCCUACGCAGGACGAAACAGC", 1.89),
    ("GCUGUCACCGAGAAACUGUGAAGUAUAUCUUAAACCUGGGCACUUAAAAGAUAUAUGGAGUUAGUAGUGCAACCUGCUCGGUCUGAUGAGUCCUCAGCGGGACGAAACAGC", 1.88),
]

Data provenance: the supplement of paper PMC6757056
